Test system: HeLa
Test: Cytotoxicity against human HeLa cells assessed as inhibition of cell growth incubated for 48 hrs by MTT assay
Type: functional, cell-based
Details: Homo sapiens, HeLa, 48 h; read-out: IC50
readout-label: pIC50
The meaning of pIC50 here: minus log10 of the concentration in molar units.

Cc1ccc2nc(C(F)(F)F)nc(N(C)c3ccc4c(ccn4C)c3)c2c1
5.88
CCNc1cc(N(C)c2nc(C(F)(F)F)nc3ccc(F)cc23)ccc1OC
6.70
C=CC(=O)Nc1cc(N(C)c2nc(C(F)(F)F)nc3ccc(F)cc23)ccc1OC
6.78

Req: Report pIC50, nothing else, for this compound: COc1ccc(N(C)c2nc(C(F)(F)F)nc3ccc(Cl)cc23)cc1[N+](=O)[O-]
Resp: 6.00

Req: For the compound CC(=O)O[C@H]1C(=O)[C@@]2(C)[C@H]([C@H](OC(=O)c3ccccc3)[C@]3(O)C[C@H](OC(=O)[C@H](O)[C@@H](NC(=O)c4ccccc4)c4ccccc4)C(C)=C1C3(C)C)[C@]1(OC(C)=O)CO[C@@H]1C[C@@H]2O , give its measured pIC50 value.
Resp: 8.22

---

Tested on: HeLa
Experiment: Cytotoxicity against human HeLa cells assessed as inhibition of cell growth incubated for 48 hrs by MTT assay
Type: functional, cell-based
Settings: Homo sapiens, HeLa, 48 h; read-out: IC50
readout-label: log10(IC50) (log10 of the value in nM)
Remember, log10 of IC50, in nM.

Known results for compounds:
CNc1cc(N(C)c2nc(C(F)(F)F)nc3ccc(F)cc23)ccc1OC
1.94
COc1ccc(N(C)c2nc(C(F)(F)F)nc3ccc(F)cc23)cc1NC(C)=O
1.66
COc1ccc(N(C)c2nc(C(F)(F)F)nc3ccc(Cl)cc23)c([N+](=O)[O-])c1
2.79
CCN(CC)c1cc(N(C)c2nc(C(F)(F)F)nc3ccc(F)cc23)ccc1OC
3.92
COc1cc2c(c(OC)c1OC)-c1ccc(OC)c(=O)cc1[C@@H](NC(C)=O)CC2
1.18

Req: Supply reported log10(IC50) belonging to this compound: CN(c1ccc2c(ccn2C)c1)c1nc(C(F)(F)F)nc2ccc(F)cc12
Resp: 1.34

Req: Item COc1ccc(N(C)c2nc(C(F)(F)F)nc3ccc(F)cc23)cc1NC(=O)CCl : provide log10(IC50)
Resp: 1.57

Req: Give the measured log10(IC50) for CN(c1ccc2c(ccn2C)c1)c1nc(C(F)(F)F)nc2ccc(Cl)cc12
Resp: 2.53

Req: Dear colleague, please send me the reported log10(IC50) for Cc1ccc2nc(C(F)(F)F)nc(N(C)c3ccc(C(F)(F)F)cc3)c2c1 when you can.
Resp: 3.46

Req: Check the records and state log10(IC50) for COc1ccc(N(C)c2nc(C(F)(F)F)nc3ccc(Cl)cc23)cc1
Resp: 2.52

---

System: LNCaP
Assay: Cytotoxicity against human LNCaP cells assessed as inhibition of cell growth incubated for 48 hrs by MTT assay
Format: functional, cell-based
readout-label: IC50 (nM)
Number in nM, nothing else.

Field: example entries. Status: answers known.
COc1cc2c(c(OC)c1OC)-c1ccc(OC)c(=O)cc1[C@@H](NC(C)=O)CC2
245
COc1ccc(N(C)c2nc(C(F)(F)F)nc3ccc(Cl)cc23)c([N+](=O)[O-])c1
2590
COc1ccc(N(C)c2nc(C(F)(F)F)nc3ccc(F)cc23)cc1NC(C)=O
810

Req: Please supply the value of reported IC50 for the item COc1ccc(N(C)c2nc(C(F)(F)F)nc3ccc(Cl)cc23)cc1
Resp: 143

Req: Please report the measured IC50 for COc1ccc(N(C)c2nc(C(F)(F)F)nc3ccc(Cl)cc23)cc1[N+](=O)[O-]
Resp: 589

Req: Please supply the value of reported IC50 for the item CCN(CC)c1cc(N(C)c2nc(C(F)(F)F)nc3ccc(F)cc23)ccc1OC
Resp: 13300

---

Items are presented alongside their recorded selectivity ratio.
Test: Selectivity index, ratio of IC50 for cytotoxicity against human L02 cells to IC50 for cytotoxicity against human K562 cells
Format: toxicity, cell-based
Conditions: L02 cells and K562 cells, read-out: Ratio IC50
The answer should be a number; do not append a unit.

COc1ccc(N(C)c2nc(C(F)(F)F)nc3ccc(F)cc23)cc1
7.36
COc1ccc(N(C)c2nc(C(F)(F)F)nc3ccc(Cl)cc23)cc1[N+](=O)[O-]
3.22

Req: Answer with the recorded selectivity ratio of COc1ccc(N(C)c2nc(C(F)(F)F)nc3ccc(Cl)cc23)cc1 only.
Resp: 1.1

Req: Determine from records and report selectivity ratio for CN(c1ccc2c(ccn2C)c1)c1nc(C(F)(F)F)nc2ccc(F)cc12
Resp: 6.29

---

Test system: HEL
Experiment: Induction of apoptosis in human HEL cells at 0.5 uM incubated for 48 hrs by annexin V-FITC/propidium iodide staining based flow cytometry relative to control
Format: functional
readout-label: Activity

CN(c1ccc2c(ccn2C)c1)c1nc(C(F)(F)F)nc2ccc(Cl)cc12
28.5%
COc1ccc(N(C)c2nc(C(F)(F)F)nc3ccc(F)cc23)cc1
32.3%
COc1ccc(N(C)c2nc(C(F)(F)F)nc3ccc(C)cc23)cc1
29.2%

Consider the additional compound presented here.
Req: Name the recorded Activity of COc1ccc(N(C)c2nc(C(F)(F)F)nc3ccc(Cl)cc23)cc1 , assay system HEL.
Resp: 31%

---

Assay: Cytotoxicity against human L02 cells assessed as inhibition of cell growth incubated for 48 hrs by MTT assay
Format: toxicity, cell-based
readout-label: IC50 at 48 h (nM)
Please give a number only; it is taken to be in nM.

Solved entries (count: 3):
COc1ccc(N(C)c2nc(C(F)(F)F)nc3ccc(Cl)cc23)cc1[N+](=O)[O-]
570
CN(c1ccc2c(ccn2C)c1)c1nc(C(F)(F)F)nc2ccc(F)cc12
2830
COc1ccc(N(C)c2nc(C(F)(F)F)nc3ccc(F)cc23)cc1
1950

Req: Dear colleague, please send me the reported IC50 at 48 h for COc1ccc(N(C)c2nc(C(F)(F)F)nc3ccc(Cl)cc23)cc1 when you can.
Resp: 323

---

Test system: HeLa
Assay: Cytotoxicity against human HeLa cells assessed as inhibition of cell growth incubated for 48 hrs by MTT assay
Type: functional, cell-based
Settings: Homo sapiens, HeLa, 48 h; read-out: IC50
readout-label: IC50 (nM)
Report the value in nM with no unit label.

COc1ccc(N(C)c2nc(C(F)(F)F)nc3ccc(C)cc23)cc1
141
COc1cc2nc(C(F)(F)F)nc(N(C)c3ccc4c(ccn4C)c3)c2cc1O
1120
COc1ccc(N(C)c2nc(C(F)(F)F)nc3ccc(F)cc23)cc1
110

Read the next record carefully.
Req: Give recorded IC50. COc1ccc(N(C)c2nc(C(F)(F)F)nc3cc(OC)c(OCCCN4CCCC4)cc23)cc1
Resp: 445

---

System: LNCaP
Experiment: Cytotoxicity against human LNCaP cells assessed as inhibition of cell growth incubated for 48 hrs by MTT assay
Assay type: functional, cell-based
readout-label: pIC50
In plain terms, pIC50 is the concentration in mol/L turned into minus its base-10 logarithm.

Use these answered entries as a reference point.
C=CC(=O)Nc1cc(N(C)c2nc(C(F)(F)F)nc3ccc(F)cc23)ccc1OC
6.40
Cc1ccc2nc(C(F)(F)F)nc(N(C)c3ccc4c(ccn4C)c3)c2c1
6.02
COc1ccc(N(C)c2nc(C(F)(F)F)nc3ccc(F)cc23)cc1NC(=O)CCl
6.59
COc1ccc(N(C)c2nc(C(F)(F)F)nc3cc(OC)c(OCCCN4CCCC4)cc23)cc1
6.76
Cc1ccc2nc(C(F)(F)F)nc(N(C)c3ccc(C(F)(F)F)cc3)c2c1
5.58
CN(c1ccc2c(ccn2C)c1)c1nc(C(F)(F)F)nc2ccc(Cl)cc12
6.86
CN(c1ccc2c(ccn2C)c1)c1nc(C(F)(F)F)nc2ccc(F)cc12
7.02
COc1ccc(N(C)c2nc(C(F)(F)F)nc3ccc(C)cc23)cc1
6.63

Req: Give the measured pIC50 for CCNc1cc(N(C)c2nc(C(F)(F)F)nc3ccc(F)cc23)ccc1OC
Resp: 5.59

Req: Item COc1ccc(N(C)c2nc(C(F)(F)F)nc3cc(OC)c(O)cc23)cc1 : provide pIC50
Resp: 5.79

Req: Specify measured pIC50 for CNc1cc(N(C)c2nc(C(F)(F)F)nc3ccc(F)cc23)ccc1OC .
Resp: 6.18

---

System: LNCaP
Test: Cytotoxicity against human LNCaP cells assessed as inhibition of cell growth incubated for 48 hrs by MTT assay
Type: functional, cell-based
Listed here: items and their measured IC50.
Field format: number, assumed nM, no unit text.

# annotated cases, reported IC50 shown
COc1cc2nc(C(F)(F)F)nc(N(C)c3ccc4c(ccn4C)c3)c2cc1O
481
COc1ccc(N(C)c2nc(C(F)(F)F)nc3ccc(F)cc23)cc1
377

Field: next compound
Req: State, in one line, measured IC50 of CC(=O)O[C@H]1C(=O)[C@@]2(C)[C@H]([C@H](OC(=O)c3ccccc3)[C@]3(O)C[C@H](OC(=O)[C@H](O)[C@@H](NC(=O)c4ccccc4)c4ccccc4)C(C)=C1C3(C)C)[C@]1(OC(C)=O)CO[C@@H]1C[C@@H]2O
Resp: 58
